Tested on: Pasteurella multocida CVCC399
Experiment: in vitro susceptibility, MIC by mini broth dilution
Assay type: cell-based
Conditions: strain CVCC399
Experimental: in vitro tests of susceptibility of the compounds according to the present disclosure against bacterial strains commonly used in laboratories. […] The MICs (minimum inhibitory concentration) of the medicaments prepared according to the examples on the following bacterial strains were measured through mini broth dilution technique. […] The dilution ratio was recorded, and the bacterial liquid for the tests was diluted according to the recorded dilution ratio. […]
experimental_readout: MIC values, Pasteurella multocida CVCC399 (ug/mi)
Answers are plain numbers, in ug/mi.

| compound | quantitative_result |
| --- | --- |
| CCCN1C[C@H](C)[C@@H](O)[C@](C)(O)[C@@H](CC)OC(=O)[C@H](C)[C@@H](O[C@H]2C[C@@](C)(OC)[C@](O)(CNCCOC)[C@H](C)O2)[C@H](C)[C@@H](O[C@@H]2O[C@H](C)C[C@H](N(C)C)[C@H]2O)[C@](C)(O)C[C@H]1C [syzx-158] | 2 |

// below: MIC values, Pasteurella multocida CVCC399 requested for another compound
Consider CC[C@H]1OC(=O)[C@H](C)[C@@H](O[C@H]2C[C@@](C)(OC)[C@](O)(CNCCCNCCc3ccc(S(C)(=O)=O)cc3)[C@H](C)O2)[C@H](C)[C@@H](O[C@@H]2O[C@H](C)C[C@H](N(C)C)[C@H]2O)[C@](C)(O)C[C@@H](C)NC[C@H](C)[C@@H](O)[C@]1(C)O [Syzx-61] . Its measured MIC values, Pasteurella multocida CVCC399 is 1

Sourced from patent US9765105B2
